FYI, the data here is from ChEMBL document CHEMBL2146434.

Assay: Dissociation constant, pKa of the compound in PBS buffer at 5 uM at pH 2 to 10 by UV-spectrophotometric analysis
Assay type: physicochemical
reported_endpoint: pKa at 5 µM
API note: the answer field is a bare number with no unit suffix.

A selection of reference data follows.
{"smiles_representation": "Cc1c2c3cc(NC(=O)CN)ccc3nc-2n(C)c2ccccc12.Cl.Cl", "pKa at 5 µM": 7.2}
{"smiles_representation": "Cc1c2c3cc(NC(=O)[C@@H]4CCCN4)ccc3nc-2n(C)c2ccccc12.Cl.Cl", "pKa at 5 µM": 7.2}
{"smiles_representation": "Cc1c2c3cc(NC(=O)CNC(=O)[C@@H]4CCCN4)ccc3nc-2n(C)c2ccccc12.Cl.Cl", "pKa at 5 µM": 7.3}

Next:
Which measured pKa at 5 µM value corresponds to Cc1c2c3cc(NC(=O)CNC(=O)CN)ccc3nc-2n(C)c2ccccc12.Cl.Cl ?
7.5
